test system: early life stage zebrafish (Danio rerio) embryos; assay: Developmental toxicity morphology screen, sealed rotating vial exposure; type: in vivo; parameters: unit not given here; conditions: benchmark dose; endpoint MORT
Measured parameter: bmd, MORT
Provide a numeric answer; units are not to be included.

Quick one: bmd, MORT for "Cc1cc(C)c2c(C)cccc2c1" ?
24.2071

What would you report for "Cc1ccc2c(C)cccc2c1" ?
43.4183

What would you report for "Cc1ccc(C)c2c(C)cccc12" ?
23.5002

What would you report for "Cc1cc2cccc(C)c2cc1C" ?
31.4823

###

test system: early life stage zebrafish (Danio rerio) embryos; experiment: Developmental toxicity morphology screen, sealed rotating vial exposure; format: in vivo; design: unit not given here; conditions: benchmark dose; morphology endpoint CRAN
Would you mind telling me the reported bmd, CRAN of each entry?

Quick one: bmd, CRAN for Cc1cc2c(C)ccc(C)c2cc1C [1,4,6,7-tetramethylnaphthalene] ?
23.8517

What would you report for Cc1cccc2c(C)cccc12 [1,5-dimethylnaphthalene] ?
48.2521

What would you report for Cc1cc(C)c2c(C)cccc2c1 [2,4,5-trimethylnaphthalene] ?
24.8219

What would you report for CCc1cccc2ccccc12 [1-ethylnaphthalene] ?
46.3281

What would you report for Cc1ccc2c(C)cccc2c1 [1,6-dimethylnaphthalene] ?
42.4789

What would you report for Cc1cc2cccc(C)c2cc1C [1,6,7-trimethylnaphthalene] ?
28.1944

###

test system: zebrafish larvae, 120 hpf; assay: Larval photomotor response (LPR) assay after vial exposure; assay type: in vivo, Danio rerio; details: LPR, period light, round 1, conc 50
Measured parameter: fold_change

Quick one: fold_change for "Cc1ccc2ccc(C)cc2c1" ?
0.2181

What would you report for "Cc1cc2ccccc2cc1C" ?
-0.533

What would you report for "CC(C)c1ccc2cc(C(C)C)ccc2c1" ?
-0.8125

What would you report for "Cc1ccc2ccccc2c1" ?
0.2253

What would you report for "Cc1ccc2c(C)c(C)ccc2c1C" ?
0.1565

What would you report for "Cc1ccc2cc(C)ccc2c1" ?
-0.2493

What would you report for "Cc1cccc2ccccc12" ?
0.667

###

tested on: zebrafish larvae, 120 hpf; experiment: Larval photomotor response (LPR) assay after vial exposure; assay type: in vivo, Danio rerio; conditions: LPR, period dark, round 1, conc 6.25
Measured parameter: fold_change

Quick one: fold_change for "CCc1ccc2cc(CC)ccc2c1" ?
-0.04909

What would you report for "Cc1ccc2cc(C)ccc2c1" ?
-0.4387

What would you report for "Cc1ccc(C)c2c(C)cccc12" ?
0.08749

What would you report for "Cc1ccc2cccc(C)c2c1" ?
-0.5415

What would you report for "Cc1cccc2ccccc12" ?
-0.4018

What would you report for "CCc1cccc2ccccc12" ?
0.06428

What would you report for "Cc1cccc2c(C)cccc12" ?
0.04355

What would you report for "Cc1cc(C)c2c(C)cccc2c1" ?
-0.09148

What would you report for "CCc1ccc2ccccc2c1" ?
-0.02917

What would you report for "Cc1cc2cccc(C)c2cc1C" ?
-0.07056

What would you report for "Cc1ccc(C)c2ccccc12" ?
-0.05841

What would you report for "CC(C)c1ccc2cc(C(C)C)ccc2c1" ?
0.07359

What would you report for "Cc1cc2ccccc2cc1C" ?
-0.1051

What would you report for "Cc1ccc2c(C)c(C)ccc2c1C" ?
-0.4187

What would you report for "CCCCc1ccc2ccccc2c1" ?
-1.395

What would you report for "Cc1cccc2cccc(C)c12" ?
0.3857

What would you report for "CC(C)c1ccc2ccccc2c1" ?
-0.6849

What would you report for "Cc1cc2c(C)ccc(C)c2cc1C" ?
-0.3364

What would you report for "CC(C)(C)c1ccc2ccc(C(C)(C)C)cc2c1" ?
-0.4542

What would you report for "Cc1ccc2ccccc2c1" ?
-0.06284

What would you report for "Cc1ccc2ccc(C)cc2c1" ?
-0.165

Where do the numbers come from? From paper PMC12560828.
